Provide the reported screen value of each item.
B1: ATGL (PNPLA2, patatin-like phospholipase domain-containing protein 2), human, full length / CIDEC (FSP27), human (parent)
chain 1: MFPREKTWNISFAGCGFLGVYYVGVASCLREHAPFLVANATHIYGASAGALTATALVTGVCLGEAGAKFIEVSKEARKRFLGPLHPSFNLVKIIRSFLLKVLPADSHEHASGRLGISLTRVSDGENVIISHFNSKDELIQANVCSGFIPVYCGLIPPSLQGVRYVDGGISDNLPLYELKNTITVSPFSGESDICPQDSSTNIHELRVTNTSIQFNLRNLYRLSKALFPPEPLVLREMCKQGYRDGLRFLQRNGLLNRPNPLLALPPARPHGPEDKDQAVESAQAEDYSQLPGEDHILEHLPARLNEALLEACVEPTDLLTTLSNMLPVRLATAMMVPYTLPLESALSFTIRLLEWLPDVPEDIRWMKEQTGSICQYLVMRAKRKLGRHLPSRLPEQVELRRVQSLPSVPLSCAAYREALPGWMRNNLSLGDALAKWEECQRQLLLGLFCTNVAFPPEALRMRAPADPAPAPADPASPQHQLAGPAPLLSTPAPEARPVIGALGL
chain 2: MEYAMKSLSLLYPKSLSRHVSVRTSVVTQQLLSEPSPKAPRARPCRVSTADRSVRKGIMAYSLEDLLLKVRDTLMLADKPFFLVLEEDGTTVETEEYFQALAGDTVFMVLQKGQKWQPPSEQGTRHPLSLSHKPAKKIDVARVTFDLYKLNPQDFIGCLNVKATFYDTYSLSYDLHCCGAKRIMKEAFRWALFSMQATGHVLLGTSCYLQQLLDATEEGQPPKGKASSLIPTCLKILQ

variants of: B1; test: LUMIER: Protein A-ATGL variant and firefly luciferase-partner co-expressed in HEK293T, lysates immunoprecipitated on IgG-coated plates, co-precipitated partner measured as luciferase luminescence; conditions: with CIDEC (FSP27), transient co-transfection, IgG-coated LUMITRAC plates, 2 h at 4 °C, three PBS washes, Bright-Glo luciferase reagent, triplicates per assay, two …, parent: 0.17, not graded, scale: log2 fold change of co-immunoprecipitated luminescence relative to wild-type ATGL within each experiment
Give bare numbers.

> print(dat)
   sequence.variant  numeric.result
1     chain 1 A104E         -0.0649

I would be grateful if you could provide screen value for each of the following entries.
1. chain 1 G59L
2. chain 1 L102K
3. chain 1 R95L
4. chain 1 G66A
5. chain 1 L178A
6. chain 1 L62A

Reply text:
1. 0.339
2. -0.128
3. -0.169
4. -0.0355
5. -0.204
6. -0.111

Could you report screen value for every entry in the following list?
1. chain 1 V328A
2. chain 1 K92L
3. chain 1 F348E
4. chain 1 F35E
5. chain 1 N39E
6. chain 1 G189E
7. chain 1 L261E
8. chain 1 E314A

Reply text:
[0.302, -0.0227, -0.409, 0.312, 0.129, -0.952, -0.713, -0.691]

Lab note: each variant below needs its screen value filled in.
1. chain 1 G16K
2. chain 1 N180L

Reply text:
0.534
-0.529

Provenance of the data: paper PMC10958042
